Hi there, I'd appreciate the recorded Prosthesis contaminant mass, Mean for every entry that follows.
experiment: Contaminant masses in explanted silicone breast prostheses (acetone extraction, GC-MS); assay type: in vivo, human; conditions: Sample 2, duplicate explanted prostheses analysed in the same batch
Numbers only, in ng sample^−1.

- Clc1cc(Cl)c(-c2ccc(Cl)c(Cl)c2Cl)cc1Cl: 123
- Clc1cc(Cl)c(Cl)c(Cl)c1Cl: 5.6
- Clc1ccc(-c2cc(Cl)c(Cl)cc2Cl)cc1Cl: 52
- ClC(Cl)=C(c1ccc(Cl)cc1)c1ccc(Cl)cc1: 543

Could you now consider this next compound?
Quick one: Prosthesis contaminant mass, Mean for "Clc1cc(Cl)c(-c2cc(Cl)c(Cl)c(Cl)c2Cl)cc1Cl" ?
9.3

Data credit: patent US9408866B2
